These entries and their values trace back to patent US20220315631A1.

Target: T1, GST-β-catenin (UniProt P35222 133-665)
T1 construct: range 133-665; GST fusion purified on glutathione-agarose and used in the FP assays; also called GST-β-catenin(133-665); pGEX-β-catenin(133-665); not shown: glutathione S-transferase (GST) tag encoded by the pGEX plasmid
T1 sequence (looked up): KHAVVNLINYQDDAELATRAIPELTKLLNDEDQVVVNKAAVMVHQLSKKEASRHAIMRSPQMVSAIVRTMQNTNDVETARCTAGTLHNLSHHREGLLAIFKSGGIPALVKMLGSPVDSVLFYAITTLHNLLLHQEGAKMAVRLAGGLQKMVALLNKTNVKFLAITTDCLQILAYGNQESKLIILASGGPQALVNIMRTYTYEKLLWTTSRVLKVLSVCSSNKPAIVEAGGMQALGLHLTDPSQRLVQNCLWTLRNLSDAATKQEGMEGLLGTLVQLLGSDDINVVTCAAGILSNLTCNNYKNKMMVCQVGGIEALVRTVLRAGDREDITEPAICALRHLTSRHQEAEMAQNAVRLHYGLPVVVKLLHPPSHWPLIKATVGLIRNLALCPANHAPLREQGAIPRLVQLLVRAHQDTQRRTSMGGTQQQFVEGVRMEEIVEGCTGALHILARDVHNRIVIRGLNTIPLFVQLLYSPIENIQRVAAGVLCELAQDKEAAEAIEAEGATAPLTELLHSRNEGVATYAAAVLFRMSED
Assay: Table 7, binding to β-catenin; FP competition as for peptides 2-5 presumed
Positions of bridges follow the written chain, without caps; N, C: chain ends. Non-standard residues stand in square brackets, D forms with d. No end group written: not given here. miniPEG = polyethylene glycol moiety (linker unit); 1Nal = N[C@@H](Cc1cccc2ccccc12)C(=O)O; 2Nal = N[C@@H](Cc1ccc2ccccc2c1)C(=O)O; Bta = N[C@@H](Cc1csc2ccccc12)C(=O)O; Tle = CC(C)(C)[C@H](N)C(=O)O; Dap = NC[C@H](N)C(=O)O; AEEA = NCCOCCOCC(=O)O
Kindly supply the reported pIC50 values for the records listed here.
Numbers only, as −log10 of the molar value.

Example results:
# Binder, pIC50
measured = [
    ("Ac-YPEDILDKHLQRV[Tle]L[miniPEG][miniPEG][Dap]-NH2 (lactam 4-8, also called Ac-YPEDILDKHLQRVZL-(miniPEG)2-Dap-NH2) [Peptide 28]", 6.51),
    ("Ac-GGYPEDILDKHLQRVIL-NH2 (lactam (positions not given here); not fully specified) [Peptide 6]", 6.61),
    ("Ac-GGYPEDILDKHLQR[Tle][1Nal]L-NH2 (lactam 6-10, also called Ac-GGYPEDILDKHLQRZ(1-Nal)L-NH2) [Peptide 12]", 6.76),
    ("Ac-GGYPEDILDKHLQR[Tle][Bta]L[AEEA][AEEA][Dap][dF][2Nal]R[dR]R[dR]Q (lactam 6-10; bridge (positions not given here); not fully specified (bridges); numbers in words are those of the source; also: cCPP9 ring hung on Dap18 side chain via Gln25 side chain, no backbone bond Dap18-X19, also called Ac-GGYPEDILDKHLQRZ(3-Bta)L-(miniPEG)2-Dap(CPP9)) [Peptide 18]", 6.98),
    ("Ac-GGYPEDILDKHLQR[Tle]WL-NH2 (lactam 6-10, also called Ac-GGYPEDILDKHLQRZWL-NH2) [Peptide 10]", 7.15),
    ("Ac-GGYPEDILDKHLQR[Tle][2Nal]L-NH2 (lactam 6-10, also called Ac-GGYPEDILDKHLQRZ(2-Nal)L-NH2) [Peptide 13]", 7.07),
]

Now take the following binder into account.
Noted for YPEDILDKHLQRXIL (N-terminal acetyl; Asp-Lys staple; Hvl = β-hydroxyvaline; C-terminal amide) [Peptide 37] : its pIC50 reads 6.81
